# testProtocol: Phase 1 hepatic impairment study, plasma PK after single oral 20 mg tablet
# Format: in vivo, human
# measurementParameters: both sexes, human, plasma, oral, 20 mg, moderate hepatic impairment; read-out: AUC(0-24), Mean ± SD
propertyName: AUC(0-t) (ng·h/mL)
One number for each entry, in ng·h/mL.

query: Item `N#Cc1cccc(-c2ccc3ncc(-c4cc(F)cc(F)c4)c(N4CCC(N)CC4)c3c2)c1O` has what recorded AUC(0-t)?
result: 1050

---

# testProtocol: Phase 1 hepatic impairment study, plasma PK after single oral 20 mg tablet
# Format: in vivo, human
# measurementParameters: both sexes, human, plasma, oral, 20 mg, moderate hepatic impairment; read-out: AUC(0-inf), Mean ± SD
propertyName: AUC(0-inf) (ng·h/mL)
One number for each entry, in ng·h/mL.

query: Item N#Cc1cccc(-c2ccc3ncc(-c4cc(F)cc(F)c4)c(N4CCC(N)CC4)c3c2)c1O [paltusotine] has what recorded AUC(0-inf)?
result: 1620
